In this section we review reported MIC values for a set of compounds.
Tested on: Staphylococcus aureus
Test: Antimicrobial activity against methicillin-resistant Staphylococcus aureus USA300
Type: functional
Assay endpoint: MIC

In [3]: df
Out[3]:
                                    compound            test_system      result
 0  Cc1nc(-c2ccc3ccccc3c2)sc1-c1ccnc(NC[C@@H](O)CO)n1  Staphylococcus aureus  > 64 µg/mL
 1  Cc1nc(-c2ccc3ccccc3c2)sc1-c1ccnc(N[C@H]2CC[C@H](N)CC2)n1  Staphylococcus aureus     8 µg/mL
 2  Cc1nc(-c2ccc3ccccc3c2)sc1-c1ccnc(NCCCO)n1  Staphylococcus aureus  > 64 µg/mL
 3  Cc1nc(-c2ccc3ccccc3c2)sc1-c1ccnc(NCC(=N)N)n1  Staphylococcus aureus  > 64 µg/mL
 4  Cc1nc(-c2ccc3ccccc3c2)sc1-c1ccnc(N2CCC[C@@H]2C(N)=O)n1  Staphylococcus aureus  > 64 µg/mL
 5  Cc1nc(-c2ccc3ccccc3c2)sc1-c1ccnc(N[C@@H]2CCCC[C@H]2N)n1 (relative stereo)  Staphylococcus aureus     4 µg/mL
 6  Cc1nc(-c2ccc3ccccc3c2)sc1-c1ccnc(N2CCC(N)C2)n1 (stereo not drawn)  Staphylococcus aureus     8 µg/mL
 7  Cc1nc(-c2ccc3ccccc3c2)sc1-c1ccnc(N2CCC[C@@H]2CO)n1  Staphylococcus aureus  > 64 µg/mL
 8  Cc1nc(-c2ccc3ccccc3c2)sc1-c1ccnc(-c2ccccn2)n1  Staphylococcus aureus  > 64 µg/mL
 9  Cc1nc(-c2ccc3ccccc3c2)sc1-c1ccnc(NC[C@H](O)CO)n1  Staphylococcus aureus  > 64 µg/mL
10  Cc1nc(-c2ccc3ccccc3c2)sc1-c1ccnc(-c2ccncc2)n1  Staphylococcus aureus  > 64 µg/mL
11  Cc1nc(-c2ccc3ccccc3c2)sc1-c1ccnc(N[C@@H]2CCCC[C@@H]2N)n1 (relative stereo)  Staphylococcus aureus     4 µg/mL
12  Cc1nc(-c2ccc3ccccc3c2)sc1-c1ccnc(N2CC[C@H](N(C)C)C2)n1  Staphylococcus aureus    32 µg/mL
13  Cc1nc(-c2ccc3ccccc3c2)sc1-c1ccnc(N2CC[C@@H](N(C)C)C2)n1  Staphylococcus aureus    32 µg/mL
14  Cc1nc(-c2ccc3ccccc3c2)sc1-c1ccnc(NC(CO)CO)n1  Staphylococcus aureus  > 64 µg/mL
15  Cc1nc(-c2ccc3ccccc3c2)sc1-c1ccnc(-c2cccnc2)n1  Staphylococcus aureus  > 64 µg/mL
16  Cc1nc(-c2ccc3ccccc3c2)sc1-c1ccnc(N2CCC[C@H]2CO)n1  Staphylococcus aureus  > 64 µg/mL
17  Cc1nc(-c2ccc3ccccc3c2)sc1-c1ccnc(N2CCC[C@H]2C(N)=O)n1  Staphylococcus aureus  > 64 µg/mL
18  Cc1nc(-c2ccc3ccccc3c2)sc1-c1ccnc(NCCCN)n1  Staphylococcus aureus  > 64 µg/mL
19  Cc1nc(-c2ccc3ccccc3c2)sc1-c1ccnc(N2CCCCC2CN)n1 (stereo not drawn)  Staphylococcus aureus  > 64 µg/mL
20  Cc1nc(-c2ccc3ccccc3c2)sc1-c1ccnc(NCC(O)CO)n1 (racemic)  Staphylococcus aureus  > 64 µg/mL
21  Cc1nc(-c2ccc3ccccc3c2)sc1-c1ccnc(NCCO)n1  Staphylococcus aureus  > 64 µg/mL
22  Cc1nc(-c2ccc3ccccc3c2)sc1-c1ccnc(NCCN(C)C)n1  Staphylococcus aureus    16 µg/mL
